What MLD was measured for each of the following?
System: dd-strain male mice
Experiment: Acute toxicity test (minimum lethal dose, oral)
Format: in vivo
Settings: oral administration, three mice per group, mortality seven days after administration

q: API: value(readout= MLD, system= dd-strain male mice, query= CCn1c(=O)c2[nH]c(/C=C/c3cc(C(F)(F)F)cc(C(F)(F)F)c3)nc2n(CC)c1=O [Compound 85] )
a: > 100 mg/kg

q: Then CCOc1ccc(/C=C/c2nc3c(c(=O)n(CC)c(=O)n3CC)n2C)cc1 [Compound 36] ?
a: > 300 mg/kg

q: Then COc1cc(C)c(/C=C/c2nc3c([nH]2)c(=O)n(C)c(=O)n3C)cc1C [Compound 29] ?
a: > 100 mg/kg

q: Then CCn1c(=O)c2[nH]c(/C=C/c3cc(OC)c(OC)cc3Br)nc2n(CC)c1=O [Compound 59] ?
a: > 100 mg/kg

q: Then CCn1c(=O)c2[nH]c(/C=C/c3cccc(Cl)c3)nc2n(CC)c1=O [Compound 69] ?
a: > 100 mg/kg

q: Then COc1cc(C)c(/C=C/c2nc3c(c(=O)n(C)c(=O)n3C)n2C)cc1C [Compound 30] ?
a: > 100 mg/kg

q: Then CCCCOc1ccc(/C=C/c2nc3c([nH]2)c(=O)n(CC)c(=O)n3CC)cc1 [Compound 41] ?
a: > 100 mg/kg

q: Then CCn1c(=O)c2c(nc(/C=C/c3ccc(OC)c(OC)c3OC)n2C)n(CC)c1=O [Compound 8] ?
a: > 300 mg/kg

q: Then CCn1c(=O)c2[nH]c(/C=C/c3ccc(OC)c(Br)c3)nc2n(CC)c1=O [Compound 55] ?
a: > 100 mg/kg

q: Then CCn1c(=O)c2[nH]c(/C=C/c3ccc(-c4ccccc4)cc3)nc2n(CC)c1=O [Compound 100] ?
a: > 100 mg/kg

q: Then CCn1c(=O)c2[nH]c(/C=C/c3ccc(F)c(Cl)c3)nc2n(CC)c1=O [Compound 104] ?
a: > 100 mg/kg

q: Then CCCOc1ccc(/C=C/c2nc3c([nH]2)c(=O)n(CC)c(=O)n3CC)cc1 [Compound 37] ?
a: > 100 mg/kg

q: Then CCn1c(=O)c2c(nc(/C=C/c3cccc(OC)c3[N+](=O)[O-])n2C)n(CC)c1=O [Compound 64] ?
a: > 100 mg/kg

q: Then CCn1c(=O)c2c(nc(/C=C/c3ccc(F)cc3)n2C)n(CC)c1=O [Compound 84] ?
a: > 100 mg/kg

q: Then CCn1c(=O)c2c(nc(/C=C/c3cc(C)ccc3C)n2C)n(CC)c1=O [Compound 34] ?
a: > 300 mg/kg

q: Then CCn1c(=O)c2c(nc(/C=C/c3cc(OC)cc(OC)c3)n2C)n(CC)c1=O [Compound 68] ?
a: > 300 mg/kg

q: Then Cn1c(=O)c2[nH]c(/C=C/c3ccc4c(c3)OCO4)nc2n(C)c1=O [Compound 23] ?
a: > 300 mg/kg

q: Then CCn1c(=O)c2c(nc(/C=C/c3ccc(O)cc3)n2C)n(CC)c1=O [Compound 112] ?
a: > 100 mg/kg

q: Then CCn1c(=O)c2c(nc(/C=C/c3ccc(OCc4ccccc4)cc3)n2C)n(CC)c1=O [Compound 113] ?
a: > 100 mg/kg

q: Then CCn1c(=O)c2[nH]c(/C=C/c3cc(C)ccc3C)nc2n(CC)c1=O [Compound 33] ?
a: > 300 mg/kg

q: Then CCn1c(=O)c2c(nc(/C=C/c3ccc(OCCCCN=[N+]=[N-])cc3)n2C)n(CC)c1=O [Compound 115] ?
a: > 100 mg/kg

q: Then CCCOc1ccc(/C=C/c2nc3c(c(=O)n(CC)c(=O)n3CC)n2C)cc1 [Compound 38] ?
a: > 300 mg/kg

q: Then COc1ccc(/C=C/c2nc3c(c(=O)n(C)c(=O)n3C)n2C)c(C)c1C [Compound 22] ?
a: > 100 mg/kg

q: Then CCn1c(=O)c2[nH]c(/C=C/c3cccc(F)c3C)nc2n(CC)c1=O [Compound 108] ?
a: > 100 mg/kg

q: Then CCCCOc1ccc(/C=C/c2nc3c(c(=O)n(CC)c(=O)n3CC)n2C)cc1 [Compound 42] ?
a: > 100 mg/kg

q: Then CCn1c(=O)c2[nH]c(/C=C/c3ccc(OC)c(F)c3)nc2n(CC)c1=O [Compound 102] ?
a: > 100 mg/kg

q: Then CCn1c(=O)c2c(nc(/C(F)=C\c3ccccc3)n2C)n(CC)c1=O [Compound 76] ?
a: > 100 mg/kg

q: Then COc1ccc(/C=C/c2nc3c([nH]2)c(=O)n(C)c(=O)n3C)c(OC)c1OC [Compound 19] ?
a: > 300 mg/kg

q: Then CCn1c(=O)c2[nH]c(/C=C/c3cccc([N+](=O)[O-])c3)nc2n(CC)c1=O [Compound 89] ?
a: > 100 mg/kg

q: Then CCn1c(=O)c2[nH]c(/C=C/c3ccc(OC)c(C)c3OC)nc2n(CC)c1=O [Compound 13] ?
a: > 300 mg/kg

q: Then CCn1c(=O)c2c(nc(/C=C/c3ccc(OC)cc3OC)n2C)n(CC)c1=O [Compound 6] ?
a: > 300 mg/kg

q: Then CCn1c(=O)c2c(nc(/C=C/c3cccc(OC)c3OC)n2C)n(CC)c1=O [Compound 4] ?
a: > 300 mg/kg

q: Then CCn1c(=O)c2[nH]c(/C=C/c3ccc(OC)c(C)c3)nc2n(CC)c1=O [Compound 47] ?
a: > 100 mg/kg

q: Then CCn1c(=O)c2c(nc(/C=C/c3cccc(C(F)(F)F)c3)n2C)n(CC)c1=O [Compound 94] ?
a: > 100 mg/kg

---

What MLD was measured for each of the following?
Tested on: dd-strain male mice
Test: Acute toxicity test (minimum lethal dose, oral)
Type: in vivo
Conditions: oral administration, three mice per group, mortality seven days after administration

q: // returns reported MLD for input CCn1c(=O)c2[nH]c(/C=C/c3ccc(C)cc3)nc2n(CC)c1=O [Compound 43]
a: > 100 mg/kg

q: Then CCn1c(=O)c2[nH]c(/C=C/c3ccc(OC)c(C)c3C)nc2n(CC)c1=O [Compound 9] ?
a: > 300 mg/kg

q: Then CCn1c(=O)c2[nH]c(/C(F)=C\c3ccccc3)nc2n(CC)c1=O [Compound 75] ?
a: > 100 mg/kg

q: Then COc1cccc(/C=C/c2nc3c(=O)n(C)c(=O)n(C)c3[nH]2)c1OC [Compound 25, (E)-8-(2,3-Dimethoxystyryl)theophylline] ?
a: > 100 mg/kg

q: Then COc1ccc(/C=C/c2nc3c([nH]2)c(=O)n(C)c(=O)n3C)c(C)c1C [Compound 21] ?
a: > 100 mg/kg

q: Then CCn1c(=O)c2c(nc(/C=C/c3ccc4c(c3)OCCO4)n2C)n(CC)c1=O [Compound 18] ?
a: > 300 mg/kg

q: Then CCn1c(=O)c2c(nc(/C=C/c3cc(OC)c(OC)cc3Br)n2C)n(CC)c1=O [Compound 60] ?
a: > 100 mg/kg

q: Then CCn1c(=O)c2c(nc(/C=C/c3ccc(OC)c(Br)c3)n2C)n(CC)c1=O [Compound 56] ?
a: > 100 mg/kg

---

Biological target: A₂ receptor (Rattus norvegicus, UniProt P30543)
Construct: from tissue; host or cells: rat corpus striatum membrane preparation
Sequence (P30543 whole entry): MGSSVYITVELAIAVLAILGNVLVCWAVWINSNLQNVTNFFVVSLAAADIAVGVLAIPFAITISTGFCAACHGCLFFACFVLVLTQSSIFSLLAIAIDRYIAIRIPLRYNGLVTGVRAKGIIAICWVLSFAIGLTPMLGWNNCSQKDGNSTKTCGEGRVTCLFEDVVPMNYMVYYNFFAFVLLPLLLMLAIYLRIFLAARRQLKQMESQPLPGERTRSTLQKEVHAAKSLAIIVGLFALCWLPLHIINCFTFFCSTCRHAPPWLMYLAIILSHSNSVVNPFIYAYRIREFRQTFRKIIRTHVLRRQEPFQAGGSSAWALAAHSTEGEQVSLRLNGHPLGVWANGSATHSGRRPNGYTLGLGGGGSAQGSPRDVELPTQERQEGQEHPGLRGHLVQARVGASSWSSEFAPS
Experiment: Adenosine A₂ receptor binding test (³H-NECA binding)
Details: ratio of Ki values A₁/A₂
readoutName: Ratio (A₁/A₂)

q: // returns reported Ratio (A₁/A₂) for input Cn1c(=O)c2c(nc(/C=C/c3ccc4c(c3)OCO4)n2C)n(C)c1=O [Compound 24, (E)-8-(3,4-Methylenedioxystyryl)caffeine]
a: > 3,800

q: Then COc1ccc(/C=C/c2nc3c(c(=O)n(C)c(=O)n3C)n2C)c(C)c1C [Compound 22] ?
a: > 33,000

q: Then CCn1c(=O)c2[nH]c(/C=C/c3ccc4c(c3)OCCO4)nc2n(CC)c1=O [Compound 17] ?
a: > 16,000

q: Then COc1ccc(/C=C/c2nc3c(c(=O)n(C)c(=O)n3C)n2C)c(OC)c1OC [Compound 20, (E)-8-(2,3,4-Trimethoxystyryl)caffeine] ?
a: > 2,000

q: Then CCn1c(=O)c2[nH]c(/C=C/c3ccc(OC)c(C)c3C)nc2n(CC)c1=O [Compound 9] ?
a: > 32,000

q: Then COc1ccc(/C=C/c2nc3c([nH]2)c(=O)n(C)c(=O)n3C)c(OC)c1OC [Compound 19] ?
a: > 320

q: Then CCn1c(=O)c2[nH]c(/C=C/c3ccc(OC)c(OC)c3OC)nc2n(CC)c1=O [Compound 7] ?
a: > 670
